tested on: T1, extracellular domain of human CD73 protein (CD73-ECD), C-terminus polyhistidine-tagged (human, UniProt P21589 27-547)
T1 construct: also called Human CD73-ECD; human recombinant CD73 enzyme (CD73 extracellular domain)
T1 sequence: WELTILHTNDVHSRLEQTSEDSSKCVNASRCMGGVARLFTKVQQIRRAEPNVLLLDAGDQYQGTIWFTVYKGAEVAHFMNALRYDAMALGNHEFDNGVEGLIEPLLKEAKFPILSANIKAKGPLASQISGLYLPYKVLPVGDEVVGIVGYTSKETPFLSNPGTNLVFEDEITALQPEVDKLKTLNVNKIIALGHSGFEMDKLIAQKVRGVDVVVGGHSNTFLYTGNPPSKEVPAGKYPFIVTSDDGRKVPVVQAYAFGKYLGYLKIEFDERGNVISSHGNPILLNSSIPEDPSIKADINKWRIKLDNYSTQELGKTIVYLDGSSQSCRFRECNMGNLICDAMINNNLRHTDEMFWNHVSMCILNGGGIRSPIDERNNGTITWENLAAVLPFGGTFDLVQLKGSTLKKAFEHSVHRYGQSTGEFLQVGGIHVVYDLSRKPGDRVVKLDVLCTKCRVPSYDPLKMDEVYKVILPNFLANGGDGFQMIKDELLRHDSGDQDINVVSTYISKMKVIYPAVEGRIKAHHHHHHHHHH
test description: ELISA, coated CD73-ECD
observed property: binding result

>>> result("Hu001c-32 (antibody, V domains shown, Humanized) VH: QVQLVQSGAEVKKPGASVKVSCKASGYTFTNYYIYWVKQRPGQRLEWIGWIYPGNLNIKYNEKFKGRSTLTADKSASTAYMELSSLRSEDTAVYYCARDDNYAWFAYWGQGTLVTVSS VL: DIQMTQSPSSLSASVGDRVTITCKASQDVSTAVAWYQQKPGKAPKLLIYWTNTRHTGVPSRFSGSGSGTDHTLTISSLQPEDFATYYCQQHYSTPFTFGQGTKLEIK")
"binds"
>>> result("Hu001c-21 (antibody, V domains shown, Humanized) VH: QVQLVQSGAEVKKPGASVKVSCKASGYTFTNYYIYWVRQAPGQRLEWIGWIYPGNLNIKYNEKFKGRVTITADKSASTAYMELSSLRSEDTAVYYCARDDNYAWFAYWGQGTLVTVSS VL: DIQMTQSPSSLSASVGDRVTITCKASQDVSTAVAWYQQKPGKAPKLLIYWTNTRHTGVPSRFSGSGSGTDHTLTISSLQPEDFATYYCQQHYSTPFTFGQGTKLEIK")
"binds"
>>> result("Hu002c-6 (antibody, V domains shown, Humanized) VH: QVQLVQSGAEVKKPGASVKVSCKASGYTLTSYWMHWVRQAPGQGLEWIGEINPSQGRSNYNEKFKSRVTLTVDRSTSTVYMELSSLRSEDTAVYYCARRGVSGNYFDYWGQGTLVTVSS VL: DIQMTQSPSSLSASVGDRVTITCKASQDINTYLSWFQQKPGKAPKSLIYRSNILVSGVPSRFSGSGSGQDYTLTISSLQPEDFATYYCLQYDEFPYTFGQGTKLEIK")
"binds"
